Recorded measurements of relative viability, one per entry
# Test system: NCI-H520
# testDescription: relative viability (nuclei count vs DMSO), 5 days (fraction); higher = more cells survive
# condition: first compound 0.1 µM
measurementType: relative viability

1. NC(=O)Nc1cc(-c2cccc(F)c2)sc1C(=O)N[C@H]1CCCNC1 [AZD7762] + CCNC(=O)c1noc(-c2cc(C(C)C)c(O)cc2O)c1-c1ccc(CN2CCOCC2)cc1 [Luminespib] (partner 0.01 µM)
0.238
2. NC(=O)Nc1cc(-c2cccc(F)c2)sc1C(=O)N[C@H]1CCCNC1 [AZD7762] + Cc1nc(Nc2ncc(C(=O)Nc3c(C)cccc3Cl)s2)cc(N2CCN(CCO)CC2)n1 [Dasatinib] (partner 0.075 µM)
0.192
3. NC(=O)Nc1cc(-c2cccc(F)c2)sc1C(=O)N[C@H]1CCCNC1 [AZD7762] + CC1(C)CCC(c2ccc(Cl)cc2)=C(CN2CCN(c3ccc(C(=O)NS(=O)(=O)c4ccc(N[C@H](CCN5CCOCC5)CSc5ccccc5)c(S(=O)(=O)C(F)(F)F)c4)cc3)CC2)C1 [Navitoclax] (partner 0.5 µM)
1.07
4. NC(=O)Nc1cc(-c2cccc(F)c2)sc1C(=O)N[C@H]1CCCNC1 [AZD7762] + Nc1ncn([C@H]2C[C@H](O)[C@@H](CO)O2)c(=O)n1 [Decitabine] (partner 2 µM)
0.52
5. NC(=O)Nc1cc(-c2cccc(F)c2)sc1C(=O)N[C@H]1CCCNC1 [AZD7762] + COc1cc2c(Oc3ccc(NC(=O)C4(C(=O)Nc5ccc(F)cc5)CC4)cc3F)ccnc2cc1OCCCN1CCOCC1 [Foretinib] (partner 0.25 µM)
0.803
